Reference for the values: patent US12433876B2

System: endometrial (ECC-1 and KLE) and ovarian (HCH-1, OVCAR-3, and SKOV-3) cancer cell lines
Assay: MTS cell viability, gynecologic cancer cell line panel
Format: cell-based
Conditions: fixed concentration 100 μM, 24 hours, MTS
ATTRIBUTE_MEASURED: cytotoxic / anti-proliferative activity (FIG. 2A)

O=C(Nc1cccc(OCc2ccccc2)c1)Nc1ccnc(Cl)c1 [UR214-2]	not tolerated
O=C(Nc1ccc(-n2cccc2)cc1)Nc1ccnc(Cl)c1 [UR214-3]	not tolerated
O=C(Nc1ccc(-c2ncccn2)cc1)Nc1ccnc(Cl)c1 [UR214-4]	not tolerated
